# System: OVCAR-8 ovarian
# assay procedure: NCI tumour cell line growth inhibition, 48 h

- compound: "COC(=O)c1cc2cc(-c3ccc(OC)cc3)cnc2[nH]1"
  GI50: "1.52 µM"
- compound: "C/C=C(/C(=C/C)c1ccc(O)cc1)c1ccc(O)cc1"
  GI50: "4.65 µM"
- compound: "O=C(Nc1cccc(-n2cc(-c3ccncc3)c(-c3ccc(Cl)c(O)c3)n2)c1)Nc1cccc(C(F)(F)F)c1"
  GI50: "1.57 µM"
- compound: "Cn1cc(C2=C(c3cn(C)c4cc(C(=O)O)ccc34)C(=O)NC2=O)c2ccccc21"
  GI50: "> 25 µM"
- compound: "O=C(NC1CCCCC1)NS(=O)(=O)c1ccc(-n2nc3c(c2-c2cccs2)Cc2ccccc2-3)cc1"
  GI50: "25.3 µM"
- compound: "C=C(C)[C@@H]1CC[C@]2(COC(C)=O)CC[C@]3(C)[C@H](CC[C@@H]4[C@@]5(C)CCCN(C(C)=O)C(C)(C)[C@@H]5CC[C@]43C)[C@@H]12"
  GI50: "1.84 µM"
- compound: "CCCCN(CCCC)CC(O)c1ccc(OCc2ccccc2)c2ccccc12 (centres undefined)"
  GI50: "11 µM"
- compound: "NS(=O)(=O)c1ccc(Nc2ncc(-c3ccccc3)o2)cc1"
  GI50: "> 25 µM"
- compound: "COc1ccc(/C=N/Nc2nc(N)nc(N3CCCC3)c2C#N)cc1"
  GI50: "7.82 µM"
